B1: glmS ribozyme (parent)
chain: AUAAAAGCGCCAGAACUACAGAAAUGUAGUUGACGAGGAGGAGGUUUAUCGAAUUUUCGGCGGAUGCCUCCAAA

variants of: B1; test: self-cleavage kobs at 2500 uM GlcN6P; higher = faster cleavage; RNA array; details: with glucosamine-6-phosphate
Variants at the floor of the assay were thinned out.
EXPERIMENTAL ENDPOINT: self-cleavage kobs at 2500 uM GlcN6P

Here are 8 variants together with their reported answers.
Entry under review: A39G G40C G41C U46G A52G . Reported self-cleavage kobs at 2500 uM GlcN6P?
< 1e-05 s⁻¹

Follow-up item: G35A U69A
< 1e-05 s⁻¹

Follow-up item: A6G A12U A36C G43C
< 1e-05 s⁻¹

Follow-up item: A42G G63C
< 1e-05 s⁻¹

Follow-up item: A33U A42C U47G U54A
< 1e-05 s⁻¹

Follow-up item: C34U G59U
< 1e-05 s⁻¹

Follow-up item: A64C C68A C70G
< 1e-05 s⁻¹

Follow-up item: U30C G66C
< 1e-05 s⁻¹

Shifting focus to the variant that follows.
Entry under review: C11G A39U G60A . Reported self-cleavage kobs at 2500 uM GlcN6P?
< 1e-05 s⁻¹

These data points were gathered from the supplement of paper PMC7125110.
